Provenance of the data: PubChem BioAssay AID651564

# assay-method-text: isolated mitochondria fluorescence counter-assay – biochemical, uHTS hits, counter-screen for MPTP inhibitor project, dose response (AID 651564)
# measurement-setup: isolated mitochondria counterscreen, fluorescence read-out
Some of the results follow. Calls of active or inactive are those of the source. Cut-off read from the data, not from the text of the source: active = IC50 below about 80 µM; inactive = the rest.
Result category, one only: true (1) = active, false (0) = inactive

>>> label_class("CN(C)Cc1ccc(F)cc1Sc1cc(Cl)ccc1Cl")
"true (1)"
>>> label_class("CCOC(=O)c1c(NC(=O)CSc2cn(CC)c3ccccc23)sc2c1CCC2")
"false (0)"
>>> label_class("CCCCOC(=O)CNc1nnc(SCC(=O)OCC)[nH]c1=O")
"false (0)"
>>> label_class("C[C@@H](CN1CCC[C@H]1CN1C(N)=NC[C@@H]1Cc1ccccc1)N1C[C@@H](Cc2ccccc2)N(CCCC2CCCC2)C1=N")
"true (1)"
>>> label_class("CCCCOc1ccc(CSC(=N)N)cc1[N+](=O)[O-]")
"false (0)"

**Query** State the result this test recorded for `Cc1ccc(-c2noc(CCC(=O)Nc3ccccc3N3CCN(C)CC3)n2)cc1` .
**Result** false (0)

**Query** State the result this test recorded for O=C(c1ccc(Cl)cc1)c1ccc(OCC(O)CN2CCCCC2)cc1 (stereo unspecified) .
**Result** true (1)

**Query** State the result this test recorded for `O=C(Nc1cccc(C(F)(F)F)c1)c1ccc(N2CCNCC2)c([N+](=O)[O-])c1` .
**Result** false (0)

**Query** State the result this test recorded for `Brc1ccc(CSc2ccc(-c3ccco3)nn2)cc1` .
**Result** false (0)

**Query** State the result this test recorded for CCCCCCCCCCCCN1C(=O)CSC1c1cccnc1 (stereo unspecified) .
**Result** true (1)

**Query** State the result this test recorded for `CCCC(C(=O)OCCN(CC)CC)(c1ccccc1)c1ccccc1` .
**Result** true (1)

====

# assay-method-text: isolated mitochondria fluorescence counter-assay – biochemical, uHTS hits, counter-screen for MPTP inhibitor project, dose response (AID 651564)
# measurement-setup: isolated mitochondria counterscreen, fluorescence read-out
This is one part of the list. Activity calls are given as the source filed them. Rule as the data show it: active = IC50 below about 80 µM; inactive = the rest.
Result category, one only: active, inactive

Observe how each entry below is paired with its result.
>>> label_class("Cc1nn(Cc2ccccc2)c2c1C(c1ccccc1)C(C#N)=C(N)O2 (stereo unspecified)")
"active"
>>> label_class("CCCCc1nc(NCCN)c(C#N)c2c1CSC(C)(C)C2")
"inactive"
>>> label_class("COc1ccc2sc(N(CCCN(C)C)C(=O)c3ccc(S(=O)(=O)N(C)C4CCCCC4)cc3)nc2c1")
"active"
>>> label_class("FC(F)(F)COc1nc(N2CCCCC2)nc(N2CCNCC2)n1")
"inactive"
>>> label_class("CCCC[C@@H]1CN=C(N)N1CCc1cc(C(F)(F)F)cc(C(F)(F)F)c1")
"active"
>>> label_class("CN(C)Cc1ccccc1C1(O)c2ccccc2CSc2ccccc21 (stereo unspecified)")
"inactive"

**Query** State the result this test recorded for `CC1(C)CC(=O)c2sc(N)nc2C1` .
**Result** inactive

**Query** State the result this test recorded for `CCNCCC(=O)N1c2ccccc2Sc2ccc(NC(=O)OCC)cc21` .
**Result** inactive

**Query** State the result this test recorded for `CN1CCC[C@@H]1CCO[C@](C)(c1ccccc1)c1ccc(Cl)cc1` .
**Result** inactive

**Query** State the result this test recorded for `O=C(NC1CCN(Cc2ccccc2)CC1)c1cc(Br)c(Br)[nH]1` .
**Result** inactive

**Query** State the result this test recorded for `O=C(Nc1cccc(-c2cccc(Cl)c2)c1)C1CCN(C2CCC2)CC1` .
**Result** active
